Values compiled from patent US10336724B2.

pIC50: −log10 of the molar value.
Measured pIC50 (hDAAO (human DAAO) (Homo sapiens (Human)))

These recorded examples may help you get a feel for the data.
Quote pIC50 with test system hDAAO (human DAAO) (Homo sapiens (Human)) for `O=C(Oc1coc(CSc2ccc(Cl)cc2)cc1=O)c1cc(CCc2ccc(Cl)cc2)c[nH]1` 5.00 to 6.00

Quote pIC50 with test system hDAAO (human DAAO) (Homo sapiens (Human)) for `O=C(Oc1cc(Cc2cccc3ccccc23)n[nH]c1=O)c1cc(Cc2ccccc2)n[nH]1` 6.00 to 7.00

Quote pIC50 with test system hDAAO (human DAAO) (Homo sapiens (Human)) for `O=C(Oc1coc(CO)cc1=O)c1ccc[nH]1` 3.30 to 4.00

Quote pIC50 with test system hDAAO (human DAAO) (Homo sapiens (Human)) for `O=C(Oc1coc(CO)cc1=O)c1cc2occc2[nH]1` 5.00 to 6.00

Quote pIC50 with test system hDAAO (human DAAO) (Homo sapiens (Human)) for `O=C(Oc1cc(Cc2cccc3ccccc23)n[nH]c1=O)c1cc(CCc2ccc(F)cc2)n[nH]1` 6.30 to 7.00

Further cases:
Quote pIC50 with test system hDAAO (human DAAO) (Homo sapiens (Human)) for `O=C(Oc1cc(Cc2ccc3ccccc3c2)n[nH]c1=O)c1cc(CCc2ccccc2)n[nH]1` 6.30 to 7.00

Quote pIC50 with test system hDAAO (human DAAO) (Homo sapiens (Human)) for `O=C(Oc1cc(CSc2ccc(Cl)c(Cl)c2)c[nH]c1=O)c1cc(CCc2ccccc2)n[nH]1` 5.00 to 6.00

Quote pIC50 with test system hDAAO (human DAAO) (Homo sapiens (Human)) for `O=C(Oc1cc2c(Cl)cccc2[nH]c1=O)c1cc(CCc2ccccc2)n[nH]1` 6.30 to 7.00

* * *

Measured pIC50 (pkDAAO (porcine kidney DAAO) (Sus scrofa (Pig)))
pIC50: −log10 of the molar value.

These recorded examples may help you get a feel for the data.
Quote pIC50 with test system pkDAAO (porcine kidney DAAO) (Sus scrofa (Pig)) for `O=C(Oc1cc(CCc2cccc3ccccc23)n[nH]c1=O)c1cc(CCc2ccccc2)n[nH]1` 7.00 to 8.00

Quote pIC50 with test system pkDAAO (porcine kidney DAAO) (Sus scrofa (Pig)) for `O=C(Oc1cc(CCc2cc(F)cc(F)c2)n[nH]c1=O)c1cc(CCc2ccc(Cl)cc2)c[nH]1` 4.00 to 5.00

Quote pIC50 with test system pkDAAO (porcine kidney DAAO) (Sus scrofa (Pig)) for `O=C(Oc1cc(Cc2cccc3ccccc23)n[nH]c1=O)c1cc(CCc2ccccc2)n[nH]1` 7.00 to 8.00

Quote pIC50 with test system pkDAAO (porcine kidney DAAO) (Sus scrofa (Pig)) for `O=C(Oc1cc(CSc2ccc(Cl)c(Cl)c2)c[nH]c1=O)c1cc(CCc2ccccc2)c[nH]1` 5.00 to 6.00

Quote pIC50 with test system pkDAAO (porcine kidney DAAO) (Sus scrofa (Pig)) for `O=C(Oc1cc(CCc2cccc3ccccc23)n[nH]c1=O)c1cc(CCc2ccc(Cl)cc2)n[nH]1` 7.00 to 8.00

Quote pIC50 with test system pkDAAO (porcine kidney DAAO) (Sus scrofa (Pig)) for `O=C(Oc1coc(CSc2ccc(Cl)cc2)cc1=O)c1cc(CCc2ccc(Cl)cc2)c[nH]1` 4.00 to 5.00

Now look at this one.
Quote pIC50 with test system pkDAAO (porcine kidney DAAO) (Sus scrofa (Pig)) for `O=C(Oc1cc2c(Cl)cccc2[nH]c1=O)c1cc(CCc2ccccc2)c[nH]1` 5.00 to 6.00
